- Assay explanation: Volume of distribution at steady state in dog at 0.5 mg/kg, iv
- Format: ADME, organism-based, Canis lupus familiaris
- Parameters: dose 0.5 mg/kg, route intravenous
- Protocol conditions: in vivo, read-out: Vdss
Observation type: Vd (L/kg)
Kindly answer with a numeric value in L/kg, unit omitted.

Request the reported Vd associated with "COc1ccc(-n2nc(C(N)=O)cc2C(=O)Cc2ccc(-n3ccccc3=O)cc2F)cc1"
0.65

---

- Assay explanation: Apparent permeability across human Caco-2 cells
- Format: ADME, cell-based
We use 20 ×10⁻⁶ cm/s as the dividing line for Papp: on or above the line is criterion met, below is criterion not met.

Illustrative cases are given below, each with its answer.
{"columns": ["Molecule smiles", "Discrete label"],
 "data": [
  ["Nc1noc2ccc(-n3nc(C(F)(F)F)cc3C(=O)Cc3ccc(N4CCCCC4=O)cc3)cc12", "criterion met"],
  ["CN(C)Cc1nccn1-c1ccc(CC(=O)c2cc(C(F)(F)F)nn2-c2ccc3onc(N)c3c2)cc1", "criterion met"],
  ["COc1ccc(-n2nc(C(N)=O)cc2C(=O)Cc2ccc(-n3ccccc3=O)cc2F)cc1", "criterion not met"],
  ["Nc1noc2ccc(-n3nc(C(F)(F)F)cc3C(=O)Cc3ccc(-n4ccccc4=O)cc3F)cc12", "criterion not met"]
]}

Switching to the query record.
Is Papp for "Nc1noc2ccc(-n3nc(C(F)(F)F)cc3C(=O)Cc3ccc(-c4ccccc4S(N)(=O)=O)cc3F)cc12" at or above 20 ×10⁻⁶ cm/s?
criterion met
